Sourced from ChEMBL document CHEMBL2029252

This section presents compounds with their documented inhibition values.
Molecular target: C-X-C chemokine receptor type 4 (Homo sapiens) (UniProt P61073)
Sequence (P61073 whole entry): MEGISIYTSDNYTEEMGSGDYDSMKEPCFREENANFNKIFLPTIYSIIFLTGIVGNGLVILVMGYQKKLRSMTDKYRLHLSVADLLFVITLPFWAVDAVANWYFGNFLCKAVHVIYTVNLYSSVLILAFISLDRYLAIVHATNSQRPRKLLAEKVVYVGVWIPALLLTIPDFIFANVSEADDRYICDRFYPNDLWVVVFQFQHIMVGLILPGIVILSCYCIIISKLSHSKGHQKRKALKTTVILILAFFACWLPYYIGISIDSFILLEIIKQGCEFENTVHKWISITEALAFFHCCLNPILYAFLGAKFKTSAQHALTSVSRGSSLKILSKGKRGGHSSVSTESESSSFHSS
Experiment: Displacement of [125I]-CXCL12 from CXCR4 expressed in human Jurkat cells at 10 uM relative to T140
Type: cell-based
MEASURED PARAMETER: inhibition (%)

compound_string=C[C@@H](NC(=O)[C@H](CCCNC(=N)N)NC(=O)c1ccc(CN(Cc2ccc(F)cc2)Cc2cccnc2)cc1)c1cccc2ccccc12 measured_parameter=inhibition assay_value=6
compound_string=C[C@H](NC(=O)[C@H](CCCNC(=N)N)NC(=O)c1ccc(CN(CCc2ccc(F)cc2)Cc2cccnc2)cc1)c1cccc2ccccc12 measured_parameter=inhibition assay_value=36
compound_string=C[C@@H](NC(=O)[C@H](CCCNC(=N)N)NC(=O)c1ccc(CN(CCc2ccc(F)cc2)CCc2cccnc2)cc1)c1cccc2ccccc12 measured_parameter=inhibition assay_value=69
compound_string=C[C@@H](NC(=O)[C@H](CCCNC(=N)N)NC(=O)c1ccc(CN(CCc2ccncc2)C(=O)c2ccc(F)cc2)cc1)c1cccc2ccccc12 measured_parameter=inhibition assay_value=12
compound_string=C[C@H](NC(=O)[C@H](CCCNC(=N)N)NC(=O)c1ccc(CN(Cc2ccc(F)cc2)Cc2ccccn2)cc1)c1cccc2ccccc12 measured_parameter=inhibition assay_value=30
compound_string=C[C@H](NC(=O)[C@H](CCCNC(=N)N)NC(=O)c1ccc(CN(CCc2ccc(F)cc2)Cc2ccncc2)cc1)c1cccc2ccccc12 measured_parameter=inhibition assay_value=26
compound_string=C[C@@H](NC(=O)[C@H](CCCNC(=N)N)NC(=O)c1ccc(CN(Cc2ccccn2)C(=O)c2ccc(F)cc2)cc1)c1cccc2ccccc12 measured_parameter=inhibition assay_value=3
compound_string=C[C@H](NC(=O)[C@H](CCCNC(=N)N)NC(=O)c1ccc(CN(CCc2ccncc2)Cc2ccc(F)cc2)cc1)c1cccc2ccccc12 measured_parameter=inhibition assay_value=20
compound_string=C[C@@H](NC(=O)[C@H](CCCNC(=N)N)NC(=O)c1ccc(CN(CCc2ccc(F)cc2)Cc2ccncc2)cc1)c1cccc2ccccc12 measured_parameter=inhibition assay_value=44
compound_string=C[C@@H](NC(=O)[C@H](CCCNC(=N)N)NC(=O)c1ccc(CN(CCc2ccccn2)Cc2ccc(F)cc2)cc1)c1cccc2ccccc12 measured_parameter=inhibition assay_value=4
compound_string=C[C@@H](NC(=O)[C@H](CCCNC(=N)N)NC(=O)c1ccc(CN(CCc2ccncc2)Cc2ccc(F)cc2)cc1)c1cccc2ccccc12 measured_parameter=inhibition assay_value=16
compound_string=C[C@H](NC(=O)[C@H](CCCNC(=N)N)NC(=O)c1ccc(CN(Cc2ccccn2)C(=O)c2ccc(F)cc2)cc1)c1cccc2ccccc12 measured_parameter=inhibition assay_value=36
compound_string=C[C@H](NC(=O)[C@H](CCCNC(=N)N)NC(=O)c1ccc(CN(Cc2ccc(F)cc2)Cc2cccnc2)cc1)c1cccc2ccccc12 measured_parameter=inhibition assay_value=27
compound_string=C[C@H](NC(=O)[C@H](CCCNC(=N)N)NC(=O)c1ccc(CN(CCc2ccncc2)C(=O)c2ccc(F)cc2)cc1)c1cccc2ccccc12 measured_parameter=inhibition assay_value=25
compound_string=C[C@H](NC(=O)[C@H](CCCNC(=N)N)NC(=O)c1ccc(CN(CCc2ccccn2)Cc2ccc(F)cc2)cc1)c1cccc2ccccc12 measured_parameter=inhibition assay_value=25
compound_string=C[C@H](NC(=O)[C@H](CCCNC(=N)N)NC(=O)c1ccc(CN(CCc2ccccn2)C(=O)c2ccc(F)cc2)cc1)c1cccc2ccccc12 measured_parameter=inhibition assay_value=0
compound_string=C[C@@H](NC(=O)[C@H](CCCNC(=N)N)NC(=O)c1ccc(CN(CCc2cccnc2)Cc2ccc(F)cc2)cc1)c1cccc2ccccc12 measured_parameter=inhibition assay_value=24
compound_string=C[C@@H](NC(=O)[C@H](CCCNC(=N)N)NC(=O)c1ccc(CN(CCc2ccc(F)cc2)Cc2cccnc2)cc1)c1cccc2ccccc12 measured_parameter=inhibition assay_value=79
compound_string=C[C@@H](NC(=O)[C@H](CCCNC(=N)N)NC(=O)c1ccc(CN(Cc2ccncc2)C(=O)c2ccc(F)cc2)cc1)c1cccc2ccccc12 measured_parameter=inhibition assay_value=6
compound_string=C[C@H](NC(=O)[C@H](CCCNC(=N)N)NC(=O)c1ccc(CN(CCc2ccc(F)cc2)CCc2ccccn2)cc1)c1cccc2ccccc12 measured_parameter=inhibition assay_value=23
compound_string=C[C@H](NC(=O)[C@H](CCCNC(=N)N)NC(=O)c1ccc(CN(CCc2ccc(F)cc2)Cc2ccccn2)cc1)c1cccc2ccccc12 measured_parameter=inhibition assay_value=16
compound_string=C[C@H](NC(=O)[C@H](CCCNC(=N)N)NC(=O)c1ccc(CNCc2ccccn2)cc1)c1cccc2ccccc12 measured_parameter=inhibition assay_value=100
compound_string=C[C@H](NC(=O)[C@H](CCCNC(=N)N)NC(=O)c1ccc(CN(CCc2ccc(F)cc2)CCc2cccnc2)cc1)c1cccc2ccccc12 measured_parameter=inhibition assay_value=35
compound_string=C[C@@H](NC(=O)[C@H](CCCNC(=N)N)NC(=O)c1ccc(CN(CCc2ccccn2)C(=O)c2ccc(F)cc2)cc1)c1cccc2ccccc12 measured_parameter=inhibition assay_value=6
compound_string=C[C@@H](NC(=O)[C@H](CCCNC(=N)N)NC(=O)c1ccc(CN(Cc2ccncc2)Cc2ccc(F)cc2)cc1)c1cccc2ccccc12 measured_parameter=inhibition assay_value=12
compound_string=N=C(N)NCCC[C@@H]1NC(=O)[C@H](CCCNC(=N)N)NC(=O)[C@@H](Cc2ccc(O)cc2)NC(=O)CNC(=O)[C@H](Cc2ccc3ccccc3c2)NC1=O measured_parameter=inhibition assay_value=100
compound_string=C[C@H](NC(=O)[C@H](CCCNC(=N)N)NC(=O)c1ccc(CN(Cc2cccnc2)C(=O)c2ccc(F)cc2)cc1)c1cccc2ccccc12 measured_parameter=inhibition assay_value=14
